# fold induction at 50 µM listing for each entry below
# Tested on: S. aureus strain USA300-0114
# test.method.notes: AK assay 384-well format, Prestwick library screening
# Format: cell-based, Staphylococcus aureus
# measurement.conditions: Staphylococcus aureus, USA300, 3 h; 50 μM final drug concentration; cutoff for positive-scoring molecules 3-fold increase; read-out: AK-based Prestwick Library Screening Results, S. aureus (fold increase in extracellular AK activity)
Where a name gives a salt, the structure may show the parent alone.
Format: numeric value only, no unit, no commentary.

- CC(C)[N+](C)(CCC(C(N)=O)(c1ccccc1)c1ccccc1)C(C)C [Isopropamide iodide]: 1.2

Any idea what its fold induction at 50 µM is? The compound is OC(CCN1CCCC1)(c1ccccc1)C1CCCCC1 (stereo not drawn) [Procyclidine hydrochloride] 1.2

Follow-up item: NC[C@@H]1O[C@H](O[C@H]2[C@@H](O)[C@H](O[C@@H]3[C@@H](O)[C@H](N)C[C@H](N)[C@H]3O[C@H]3O[C@H](CO)[C@@H](O)[C@H](O)[C@H]3N)O[C@@H]2CO)[C@H](N)[C@@H](O)[C@@H]1O [Paromomycin sulfate] 1.3

Follow-up item: Cc1oncc1C(=O)Nc1ccc(C(F)(F)F)cc1 [Leflunomide] 0.6

Follow-up item: C[N+](C)(C)CCOC(N)=O [Carbachol] 1.4

Follow-up item: CC(=O)Nc1ccc(O)cc1 [Acetaminophen] 1.6

Follow-up item: COc1ccccc1N1CCN(CC(O)COc2cccc3ccccc23)CC1 (stereo not drawn) [Naftopidil dihydrochloride] 0.5

Follow-up item: CC(=O)Nc1cc2ccccc2oc1=O [Compound 3-Acetamidocoumarin, 3-Acetamidocoumarin] 0.4

Follow-up item: Cc1ccnc(NS(=O)(=O)c2ccc(N)cc2)n1 [Sulfamerazine] 0.9
